As shown below, each of these variants has a reported protein stability index value.
B1: ZNF449 (parent)
chain: CTHCSKSFRQRAGLIMHQVTHFRG

variants of: B1; experiment: protein stability index of a GFP-peptide fusion (GPS, HEK-293T) (PSI 1-6); higher = more stable; conditions: c terminus: a fixed tail appended;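 also: lentivirally expressed fusions sorted by FACS into six bins by GFP to DsRed ratio, PSI derived from sequencing read proportions per bin multiplied by bin number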

{"variant_name": "K6Y", "protein stability index": 2.62}
{"variant_name": "M16Y", "protein stability index": 1.57}
{"variant_name": "T2Q", "protein stability index": 2.84}
{"variant_name": "C4H", "protein stability index": 2.39}
{"variant_name": "A12Q", "protein stability index": 3.53}

Inquiry: Query (variant): F22S ; field requested: protein stability index
Reply text: 2.2
